# SYSTEM_TESTED: UniProt Q99500
# Sequence (Q99500 whole entry): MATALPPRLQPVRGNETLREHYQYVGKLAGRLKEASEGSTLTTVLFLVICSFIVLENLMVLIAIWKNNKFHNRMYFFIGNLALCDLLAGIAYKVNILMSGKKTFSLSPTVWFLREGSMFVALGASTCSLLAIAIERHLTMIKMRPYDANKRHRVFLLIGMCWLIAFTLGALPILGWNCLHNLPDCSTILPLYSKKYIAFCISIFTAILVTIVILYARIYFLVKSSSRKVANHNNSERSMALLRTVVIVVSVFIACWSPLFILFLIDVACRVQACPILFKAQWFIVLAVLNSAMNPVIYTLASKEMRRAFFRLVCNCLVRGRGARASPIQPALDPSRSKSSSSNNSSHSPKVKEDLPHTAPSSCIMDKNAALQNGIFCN
# ASSAY_SUMMARY: Agonist activity against S1P3 receptor by cell based FRET assay
pEC50: −log10 of the molar value.
Property: pEC50; scope: individual molecules

{"QUERY_SMILES": "CCc1c(CCN2CCCCC2)cccc1-c1nsc(-c2ccc(CC(C)C)c(C#N)c2)n1", "SYSTEM_TESTED": "UniProt Q99500", "pEC50": "< 5.00"}
{"QUERY_SMILES": "CCc1c(CN2CC(C(=O)O)C2)cccc1-c1nsc(-c2ccc(CC(C)C)c(C#N)c2)n1", "SYSTEM_TESTED": "UniProt Q99500", "pEC50": "< 5.50"}
{"QUERY_SMILES": "CCc1c(CCNCC(=O)O)cccc1-c1nsc(-c2ccc(OC(C)C)c(C(F)(F)F)c2)n1", "SYSTEM_TESTED": "UniProt Q99500", "pEC50": "< 5.50"}

Prompt: Item CCc1c(CCCC(=O)O)cccc1-c1ccc(-c2ccc(OC(C)C)c(C#N)c2)s1 : provide pEC50
Response: < 5.00

Prompt: Please give the documented pEC50 of CCc1c(CCN2CC(O)C2)cccc1-c1nsc(-c2ccc(CC(C)C)c(C#N)c2)n1
Response: < 5.50

Prompt: Give recorded pEC50. CCc1c(CCN2CC(C(=O)O)C2)cccc1-c1nsc(-c2ccc(OC(C)C)c(C(F)(F)F)c2)n1
Response: 5.50

Prompt: Please indicate pEC50 recorded for CCc1c(CCCC(=O)O)cccc1-c1nnc(-c2ccc(OC(C)C)c(C#N)c2)o1
Response: < 5.00

Prompt: Identify pEC50 associated with the molecule CCc1c(CCCC(=O)O)cccc1-c1cnc(-c2ccc(OC(C)C)c(C#N)c2)s1
Response: < 5.00

Prompt: Respond only with pEC50 recorded for CCc1c(CN(C)CC(=O)O)cccc1-c1nsc(-c2ccc(OC(C)C)c(C(F)(F)F)c2)n1
Response: < 5.00

Prompt: Report pEC50 for CCc1c(CCN2CCC(C(=O)O)CC2)cccc1-c1nsc(-c2ccc(OC(C)C)c(Cl)c2)n1
Response: < 5.50

All values here come from ChEMBL document CHEMBL2057096.
